# SYSTEM NAME: T1, huIL-17RA-FLAG-polyHis (human, UniProt Q96F46 33-320)
# T1 construct: also called IL-17RA-FLAG-pHis; wild-type IL-17RA
# PROCEDURE TEXT: binning; IL-17RA held by bead mAb I
ENDPOINT NAME: normalized MFI

1. AMH8/AML8 (antibody, IgG2, V domains shown, human mAb from IgG2 XenoMouse mice; also called AM-8; antibody C) VH: QVQLVQSGAEVKKPGASVKVSCKASGNTFTGYGISWVRQAPGQGLEWMGWISAYNGNTNYAQNLQGRVTMTTDTSTSTAYMELRSLRSDDTAVYYCARRDYDILTGYYNGFDPWGQGTLVTVSS VL: DIQMTQSPSSLSASVGDRVTITCRASQGIRNDLGWYQQKPGKAPKRLIYAASSLQSGVPSRFSGSGSGTEFTLTISSLQPEDFATYYCLQHKSYPLTFGGGTKVEIK ... 6720
2. AMH11/AML11 (antibody, IgG2, V domains shown, human mAb from IgG2 XenoMouse mice; also called AM-11; antibody A) VH: QVQLVESGGGVVQPGRSLRLSCATSGITFSSYGMHWVRQAPGKGLEWVAVIWYDGSNKYYADSVKGRFTISRDNSKNTLYLQMNSLRAEDTAVYYCARDTKDYWGQGTLVTVSS VL: EIVMTQSPATLSVSPGERATLSCRASQSVSSNLAWYQQKPGQAPRLLIYGASTRAAGIPARFSGGGSGTAFTLTISNLQSEDFAVYYCQHYINWPKWTFGQGTKVDIK ... 5300
3. AMH16/AML16 (antibody, IgG2, V domains shown, human mAb from IgG2 XenoMouse mice; also called AM-16; antibody O) VH: QVQLVQSGAEVKKPGASVKVSCKASGYTFTSYGISWVRQAPGQGLEWMGWISAYNGNTKYAQKLQGRVTMTTDTSTSTVYMELRSLRSDDTAVYYCARKQLVFDYWGQGTLVTVSS VL: EIVMTQSPATLSVSPGERATLSCRASQSISTSLAWYQQKPGQAPRLLIYGTSTRATGIPARFSGSGSGTEFTLTISSLQSEDFAVYFCQQYDIWPLTFGGGTKVEIK ... 10
